Reference for the values: patent US10683278B2

The entries below come with measured half-life values attached.
- TEST: In vivo pharmacokinetic and bioavailability experiments of rats
- Parameters: species or system SD rats
- PARTICULARS: Sprague-Dawley, rat, plasma; SD rats, iv, 5 mg/kg single dose
QUANTITY_KIND: half-life (min)

> print(dat)
                                   compound  observed
1  COc1cc2ncnc(Oc3ccc(NC(=O)c4cn5c6c(c(N7CCN(C)CC7)c(F)cc6c4=O)OCN5C)cc3F)c2cc1OC       763
2  COc1cc2ncnc(Oc3ccc(NC(=O)c4cn(-c5ccc(F)cc5)c5cc(N6CCNCC6)c(F)cc5c4=O)cc3F)c2cc1OC       949
3  COc1cc2ncnc(Oc3ccc(NC(=O)c4cn5c6c(c(N7CCC(O)CC7)c(F)cc6c4=O)CCC5C)cc3F)c2cc1OC (stereo not shown)       256
4  CCc1ccc2c(c1)c(=O)c(C(=O)Nc1ccc(Oc3ncnc4cc(OCCN5CCCC5)c(OC)cc34)c(F)c1)c(C)n2C       243
